- Test system: MOLT-4
- EXPERIMENT_NOTES: NCI tumour cell line growth inhibition, 48 h
The source made the active and inactive calls. Rule as the data show it: active = GI50 up to about 1.1 µM and inactive = higher.
Property: GI50; scope: individual compounds

COMPOUND | GI50
NC(=S)N/N=C(/CC(=O)c1ccc([N+](=O)[O-])cc1)C(=O)Nc1ncc([N+](=O)[O-])s1 | 30.7 µM (inactive)
Cc1cc(C)c(S(=O)(=O)N(CCCN)OCCON(CCCN)S(=O)(=O)c2c(C)cc(C)cc2C)c(C)c1 | 2.64 µM (inactive)
COc1ccc(N[S+]([O-])c2ccccc2OC)cc1 (configuration not stated) | 27 µM (inactive)
COC(=O)C1=C(C)NC(C)=C(C(=O)OC)C1c1ccc(N=O)cc1 | 3.33 µM (inactive)
CC(C)C1COC(C(C)(C)C2=N[C@@H](C(C)C)CO2)=N1 (some centres not stated) | > 100 µM (inactive)
Cc1c(C)c(C)c(Cn2[nH]c(=O)n(C)c2=O)c(C)c1C | > 100 µM (inactive)
Nc1ncc2c(n1)-c1ccccc1OC2 | > 100 µM (inactive)
O=[N+]([O-])c1ccc(Cl)cc1/C=N/C12CC3CC(CC(C3)C1)C2 | 18.5 µM (inactive)
Cc1nc(Cl)nc(Cl)c1C | > 100 µM (inactive)
O=C(CN1CCNCCN(CC(=O)N2CCCCC2)CCNCC1)N1CCCCC1 | 84.7 µM (inactive)
CNC(=O)OC1/C(C)=C\C(C)C(O)C(OC)CC(C)CC2=C(OC)C(=O)C=C(C2=O)N(C)C(=O)/C(C)=C/C=C\C1OC (configuration not stated) | 0.891 µM (active)
CCN(CC)CCOC(=O)c1ccc(N)cc1.CCOC(=O)Nc1ccc(S(=O)(=O)OC)cc1.CCOC(=O)Nc1ccc(S(=O)(=O)OC)cc1.Nc1ccc(C(=O)O)c(O)c1 | > 100 µM (inactive)
O=C1OCC2(CO1)CC1C=CC2C1 (configuration not stated) | > 100 µM (inactive)
CN(C)CCNC(=O)c1cccc2c1C(=O)c1ccccc1C2=O | 20.5 µM (inactive)
CC(C)N(C(=O)C1(C)CC1)C(C)C | > 100 µM (inactive)
O=C(c1ccccn1)c1nnn2ccccc12 | > 100 µM (inactive)
COc1cc(C(=O)n2c3ccc(Br)cc3c3nc4ccccc4nc32)cc(OC)c1OC | 50.8 µM (inactive)
CC(C)OC(=O)NNc1c(Cl)cc(Cl)cc1Cl | 58.7 µM (inactive)
CC1=C(C(=O)Nc2ccc([N+](=O)[O-])cc2)C(c2ccco2)C(C(=O)Nc2ccc([N+](=O)[O-])cc2)=C(C)N1 | 4.33 µM (inactive)
[N-]=[N+]=C(C(=O)CN1CCCC1=O)S(=O)(=O)c1ccccc1 | > 100 µM (inactive)
COC(=O)CCNC(=O)OCc1ccccc1 | > 100 µM (inactive)
O=C(O)C1CCCN1C(=O)c1cc(Cl)ccn1 (configuration not stated) | > 100 µM (inactive)

The origin of these recorded values is ChEMBL document CHEMBL1201862.
